# maps each entry to its tissue uptake at 24 h
assay: in vivo; conditions: BALB/c nude, mouse, in vivo, iv, total radioactivity, % ID/g Lung
RESULT TYPE: tissue uptake at 24 h (%ID/g)

MOLECULE | RESULT TYPE | UNIT SPEC | OBSERVED MEASUREMENT
C[C@@H](O)[C@H](NC(=O)[C@@H]1CSSC[C@H](NC(=O)[C@@H](Cc2ccccc2)NC(=O)CN2CCN(CC(=O)O)CCN(CC(=O)O)CCN(CC(=O)O)CC2)C(=O)N[C@@H](Cc2ccc(O)cc2)C(=O)N[C@H](Cc2c[nH]c3ccccc23)C(=O)N[C@@H](CCCCN)C(=O)N[C@@H]([C@@H](C)O)C(=O)N1)C(=O)O [^177Lu-C-1, metal not drawn, reference compound] | tissue uptake at 24 h | %ID/g | 0.32
C[C@@H](O)[C@H](NC(=O)[C@@H]1CSSC[C@H](NC(=O)[C@@H](Cc2ccccc2)NC(=O)[C@H](CCCCNC(=O)COCCOCCNC(=O)c2cccc(NC(=O)N[C@@H]3CN(C4CCCCC4)c4ccccc4N(CC(=O)C(C)(C)C)C3=O)c2)NC(=O)CN2CCN(CC(=O)O)CCN(CC(=O)O)CCN(CC(=O)O)CC2)C(=O)N[C@@H](Cc2ccc(O)cc2)C(=O)N[C@H](Cc2c[nH]c3ccccc23)C(=O)N[C@@H](CCCCN)C(=O)N[C@@H]([C@@H](C)O)C(=O)N1)C(=O)O [^177Lu-I-36, metal not drawn] | tissue uptake at 24 h | %ID/g | 1.72
C[C@@H](O)[C@H](NC(=O)[C@@H]1CSSC[C@H](NC(=O)[C@@H](Cc2ccccc2)NC(=O)[C@H](CCCCNC(=O)c2cccc(NC(=O)N[C@@H]3CN(C4CCCCC4)c4ccccc4N(CC(=O)C(C)(C)C)C3=O)c2)NC(=O)COCCOCCNC(=O)CN2CCN(CC(=O)O)CCN(CC(=O)O)CCN(CC(=O)O)CC2)C(=O)N[C@@H](Cc2ccc(O)cc2)C(=O)N[C@H](Cc2c[nH]c3ccccc23)C(=O)N[C@@H](CCCCN)C(=O)N[C@@H]([C@@H](C)O)C(=O)N1)C(=O)O [^177Lu-I-35, metal not drawn] | tissue uptake at 24 h | %ID/g | 1.73
